All figures here come from patent US4415574A.

Test system: COLI
experimental_details: Inhibiting minimum concentration (I.M.C.), activity relative to trimethoprime, MULLER HINTON COLI MEDIUM 4
Format: cell-based
details: ratio of I.M.C. to trimethoprime
measure: % activity with respect to the base (%)
Record the value in %, omitting the unit from your answer.

{"columns": ["compound", "% activity with respect to the base, %"],
 "data": [
  ["CCC(C)C(C)C(Nc1ncc(Cc2cc(OC)c(OC)c(OC)c2)c(N)n1)S(=O)(=O)O (centres unmarked) [Example 6]", 15.75]
]}

Problem: State the recorded % activity with respect to the base for this entry: COc1cc(Cc2cnc(NC(c3ccccc3O)S(=O)(=O)O)nc2N)cc(OC)c1OC (centres unmarked) [Example 25c]
Result: 57

Problem: Dear colleague, I am looking for the recorded % activity with respect to the base of the following compound: CCOc1cc(C(Nc2ncc(Cc3cc(OC)c(OC)c(OC)c3)c(N)n2)S(=O)(=O)O)ccc1O (centres unmarked) [Example 24e]
Result: 40.0

Problem: Request the reported % activity with respect to the base associated with COc1cc(Cc2cnc(NC(c3ccccc3Cl)S(=O)(=O)O)nc2N)cc(OC)c1OC (centres unmarked) [Example 9]
Result: 13.3

Problem: Report % activity with respect to the base for COc1cc(Cc2cnc(NC(c3ccccc3)S(=O)(=O)O)nc2N)cc(OC)c1OC (centres unmarked) [Example 8] please.
Result: 10.2

Problem: State the recorded % activity with respect to the base for this entry: CCOc1cc(C(Nc2ncc(Cc3cc(OC)c(OC)c(OC)c3)c(N)n2)S(=O)(=O)O)ccc1O (centres unmarked) [Example 24f]
Result: 40.3
